# test_system: Bromodomain-containing protein 4 (Homo sapiens, UniProt O60885)
# assay_protocol: Inhibition of BRD4-BD1 (unknown origin) incubated for 1 hr by AlphaScreen biotin-JQ1 competition assay
measurement_type: IC50 (nM)
Give bare numbers, in nM.

Some compounds with known IC50 results, for comparison:
{"mol_smiles": "C[C@H]1C(=O)N(C)c2cnc(Nc3ccc(C(=O)NC4CCN(C)CC4)cc3OC3CCCC3)nc2N1C1CCCC1", "measurement_type": "IC50", "readout_unit": "nM", "data_value": 59}
{"mol_smiles": "COc1cc(C(=O)NC2CCN(C)CC2)ccc1Nc1ncc2c(n1)N(C(C)C)[C@H](CC(C)C)C(=O)N2C", "measurement_type": "IC50", "readout_unit": "nM", "data_value": 41900}
{"mol_smiles": "CN1CCC(NC(=O)c2ccc(Nc3ncc4c(n3)N(C3CCCC3)CC(=O)N4C)c(OC3CCCC3)c2)CC1", "measurement_type": "IC50", "readout_unit": "nM", "data_value": 690}
{"mol_smiles": "C[C@@H]1C(=O)N(C)c2cnc(Nc3ccc(C(=O)NC4CCN(C)CC4)cc3OC3CCCC3)nc2N1C1CCCC1", "measurement_type": "IC50", "readout_unit": "nM", "data_value": 28}
{"mol_smiles": "CC[C@@H]1C(=O)N(C)c2cnc(Nc3ccc(C(=O)NC4CCN(C)CC4)cc3OC)nc2N1C(C)C", "measurement_type": "IC50", "readout_unit": "nM", "data_value": 186}
{"mol_smiles": "COc1cc(C(=O)NCCN(C)C)ccc1Nc1ncc2c(n1)N(C1CCCC1)[C@H](C)C(=O)N2C", "measurement_type": "IC50", "readout_unit": "nM", "data_value": 104}
{"mol_smiles": "CCC[C@@H]1C(=O)N(C)c2cnc(Nc3ccc(C(=O)NC4CCN(C)CC4)cc3OC)nc2N1C1CCCC1", "measurement_type": "IC50", "readout_unit": "nM", "data_value": 2580}
{"mol_smiles": "COc1cc(C(=O)NC2CCN(C)CC2)ccc1Nc1ncc2c(n1)N(C1CCCC1)[C@@H](C)C(=O)N2C", "measurement_type": "IC50", "readout_unit": "nM", "data_value": 107}

Kindly give each listed record's IC50.
1. COc1cc(C(=O)NC2CCN(C)CC2)ccc1Nc1ncc2c(n1)N(C1CCCC1)[C@H](C)C(=O)N2C
2. COc1cc(C(=O)NC2CCCCC2)ccc1Nc1ncc2c(n1)N(C1CCCC1)[C@H](C)C(=O)N2C

Key:
[84, 107]

Kindly give each listed record's IC50.
1. CCC[C@@H]1C(=O)N(C)c2cnc(Nc3ccc(C(=O)NC4CCN(C)CC4)cc3OC3CCCC3)nc2N1C1CCCC1
2. COc1cc(C(=O)NC2CCN(C)CC2)ccc1Nc1ncc2c(n1)N(C1CCCC1)CC(=O)N2C
3. COc1cc(C(=O)NC2CCNCC2)ccc1Nc1ncc2c(n1)N(C1CCCC1)[C@H](C)C(=O)N2C
4. COc1cc(C(=O)NCCc2ccccc2)ccc1Nc1ncc2c(n1)N(C1CCCC1)[C@H](C)C(=O)N2C
5. COc1cc(C(=O)NC2CCN(C)CC2)ccc1Nc1ncc2c(n1)N(C1CCCCC1)[C@H](C)C(=O)N2C

Key:
[596, 6630, 109, 183, 310]

Kindly give each listed record's IC50.
1. COc1cc(C(=O)NC2CCN(C)CC2)ccc1Nc1ncc2c(n1)N(C(C)C)[C@H](C)C(=O)N2C
2. COc1cc(C(=O)N2CCCCC2)ccc1Nc1ncc2c(n1)N(C1CCCC1)[C@H](C)C(=O)N2C
3. COC(=O)c1ccc(Nc2ncc3c(n2)N(C2CCCC2)[C@H](C)C(=O)N3C)c(OC2CCCC2)c1
4. CC[C@@H]1C(=O)N(C)c2cnc(Nc3ccc(C(=O)NC4CCN(C)CC4)cc3OC)nc2N1C1CCCCC1

Key:
421
94
253
650
